system: LOX IMVI melanoma; assay: NCI tumour cell line growth inhibition, 48 h; in the data active means GI50 below about 0.43 µM; inactive means the rest
Can you answer with just one of these options? label 1 for active, label 0 for inactive

Example entries begin here.
What was the test verdict on FC(F)c1ncc(-c2ccc(C(F)(F)F)cc2)c(NC2CCCCCC2)n1 ?
label 0

In this assay, the call recorded for CC(=O)c1c[nH]c2ccc(-c3ccnc(Nc4ccc(NC(=O)C5CCCC5)c(CN5CCOCC5)c4)n3)cc12 was what?
label 1

Read the next record carefully.
Hello, I am checking results. What call was entered for Cc1c(Nc2nccc3cc(CN4CC[C@@H](O)C4)cnc23)cccc1-c1cccc(-c2nc3cc(CN4CC[C@@H](C(=O)O)C4)cc(C#N)c3o2)c1C ?
label 0
